// data source = paper PMC9221290

- protocol_description: in vitro
- experimental_parameters: human, % of cell viability compared to control, 1. measurement, HepG2, 50 µM
experimental_endpoint: viability at 50 µM (%)
Give bare numbers, in %.

                                   compound  experimental_endpoint  measured_number
0  COc1ccc2cc3[n+](cc2c1OCc1ccc(Cl)cc1)CCc1cc2c(cc1-3)OCO2 [16i, 9-O-(4-chlorbenzyl)berberine chloride]     viability at 50 µM             4.45
1  COc1ccc2cc3[n+](cc2c1OCc1cccc(Br)c1)CCc1cc2c(cc1-3)OCO2 [16f, 9-O-(3-brombenzyl)berberine chloride]     viability at 50 µM             39.3
2  COc1ccc2cc3[n+](cc2c1OCc1ccccc1C)CCc1cc2c(cc1-3)OCO2 [16b, 9-O-(2-methylbenzyl)berberine chloride]     viability at 50 µM             41.5
3  COc1ccc2cc3[n+](cc2c1OCc1ccccc1Br)CCc1cc2c(cc1-3)OCO2 [16e, 9-O-(2-brombenzyl)berberine chloride]     viability at 50 µM             10.5
4  COc1ccc2cc3[n+](cc2c1OCc1ccc(C)cc1)CCc1cc2c(cc1-3)OCO2 [16d, 9-O-(4-methylbenzyl)berberine chloride]     viability at 50 µM             43.7

Would you mind giving viability at 50 µM for every compound in the list below?
1. COc1ccc2cc3[n+](cc2c1OCc1cccc(Cl)c1)CCc1cc2c(cc1-3)OCO2 [16h, 9-O-(3-chlorbenzyl)berberine chloride]
2. COc1ccc2cc3[n+](cc2c1OCc1ccc(Cl)c(Cl)c1)CCc1cc2c(cc1-3)OCO2 [16k]
3. COc1ccc2cc3[n+](cc2c1OCc1ccc(Br)cc1)CCc1cc2c(cc1-3)OCO2 [16g, 9-O-(4-brombenzyl)berberine chloride]

1. 36.5
2. 35
3. 42.5

----------
Exercise: state measured pIC50 for each of the compounds provided.
- System: HepG2 cells
- protocol_description: cells
- experimental_parameters: Homo sapiens, HepG2, 24 h, read-out: HepG2 IC50, 3. measurement, MTT, 24 h, single measurement 3
Give bare numbers, as −log10 of the molar value.

Some entries whose results are on file:
>>> df
                                   compound  measured_number
0  COc1ccc2cc3[n+](cc2c1OCc1cccc(C)c1)CCc1cc2c(cc1-3)OCO2 [16c, 9-O-(3-methylbenzyl)berberine chloride]             4.37
1  COc1ccc2cc3[n+](cc2c1OCc1ccc(Cl)c(Cl)c1)CCc1cc2c(cc1-3)OCO2 [16k]             5.00
2  COc1ccc2cc3[n+](cc2c1OCc1ccccc1)CCc1cc2c(cc1-3)OCO2 [16a, 9-O-benzylberberine chloride]             4.63

Dear colleague, could you please provide pIC50 for the compounds listed below?
1. COc1ccc2cc3[n+](cc2c1OCc1ccc(Br)cc1)CCc1cc2c(cc1-3)OCO2 [16g, 9-O-(4-brombenzyl)berberine chloride]
2. COc1ccc2cc3[n+](cc2c1OCc1cccc(Cl)c1)CCc1cc2c(cc1-3)OCO2 [16h, 9-O-(3-chlorbenzyl)berberine chloride]
3. COc1ccc2cc3[n+](cc2c1OCc1ccccc1C)CCc1cc2c(cc1-3)OCO2 [16b, 9-O-(2-methylbenzyl)berberine chloride]

[4.74, 5.10, 4.36]
